Molecular target: PAK7 Catalytic Domain (Homo sapiens, UniProt Q9P286)
Construct: For all of them, we expressed and purified the catalytic domain separately; His-tag; made in house; host or cells: Escherichia coli
Sequence (Q9P286 449-700 limits assumed): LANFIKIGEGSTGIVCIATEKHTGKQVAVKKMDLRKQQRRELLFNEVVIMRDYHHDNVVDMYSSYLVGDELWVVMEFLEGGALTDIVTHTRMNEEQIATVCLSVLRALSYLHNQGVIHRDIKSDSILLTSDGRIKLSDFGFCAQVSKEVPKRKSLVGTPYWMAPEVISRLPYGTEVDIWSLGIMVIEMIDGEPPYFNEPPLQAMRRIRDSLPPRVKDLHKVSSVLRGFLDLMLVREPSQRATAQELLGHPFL
Assay: Differential Scanning Fluorimetry (DSF) Tm shift
Format: binding
Conditions: 2 µM protein, 10 µM inhibitor, average of 3 experiments, each in duplicate
Assignment: determine reported Melting temperature (Tm) shift for the given compounds.
Numbers only, in degrees Celcius.

Recorded Melting temperature (Tm) shift, per entry:
[
  {
    "compound": "CN1C(=O)C(=C2Nc3ccccc3C2=NO)c2ccc(Br)cc21 [GSK-3 Inhibitor IX, Control, MeBIO]",
    "recorded-endpoint": "Melting temperature (Tm) shift",
    "unit-abbrev": "degrees Celcius",
    "measured-value": 0.0
  },
  {
    "compound": "COc1ccc2c(c1)c1c3c(c4c5ccccc5n(C)c4c1n2CC(O)CN(C)C)C(=O)NC3=O.Cl (stereo not drawn) [Gö 7874, Hydrochloride]",
    "recorded-endpoint": "Melting temperature (Tm) shift",
    "unit-abbrev": "degrees Celcius",
    "measured-value": 0.1
  }
]

Provide each entry's Melting temperature (Tm) shift from the list below.
1. Cc1ccc([N+](=O)[O-])cc1S(=O)(=O)N(C)N=Cc1cnc2ccc(Br)cn12.Cl.O.O
2. O=c1c(O)c(-c2ccc(O)c(O)c2)oc2cc(O)c(O)c(O)c12
3. COc1cc2ncnc(Nc3ccc(Cl)cc3Cl)c2cc1OC

Response line:
1.8
0.1
0.0

Provide each entry's Melting temperature (Tm) shift from the list below.
1. COc1cc(Nc2ncc3ccn(-c4cccc(CCC#N)c4)c3n2)cc(OC)c1OC
2. CC(C)(C)c1nc2c3cc[nH]c(=O)c3c3cc(F)ccc3c2[nH]1

Response line:
1: 0.0; 2: 0.2

Provide each entry's Melting temperature (Tm) shift from the list below.
1. CCn1cnc2c(Nc3cccc(Cl)c3)nc(N[C@H]3CCCC[C@H]3N)nc21 [Cdk1 Inhibitor, CGP74514A]
2. CC(C)n1cnc2c(Nc3cccc(Cl)c3)nc(NCCO)nc21
3. O.O=C1NCCc2[nH]c(-c3ccnc(-c4cnc5ccccc5c4)c3)cc21
4. O=C(Nc1cccc(Nc2nccc(Nc3cccc(C(F)(F)F)c3)n2)c1)C1CC1
5. O=C1Cc2c([nH]c3ccc(Br)cc23)-c2ccccc2N1
6. N#Cc1cnc2cnc(NCc3cccnc3)cc2c1Nc1ccc(F)c(Cl)c1
7. Cc1cc(Nc2nc(-c3ccccc3)nc3ccccc23)n[nH]1
8. COc1cc2ncnc(Nc3ccc(Oc4ccccc4)cc3)c2cc1OC

Response line:
1. 5.4
2. 1.8
3. 0.0
4. 0.0
5. 0.7
6. 0.1
7. 2.0
8. 0.0
